Here, each record is paired with measured relative viability data.
# Test system: ChaGo-K-1
# RUN_DESCRIPTION: relative viability (nuclei count vs DMSO), 5 days (fraction); higher = more cells survive
# COND: first compound 20 µM
Give the value as a plain number.

Consider the following illustrative entries.
COCC1(CO)C(=O)C2CCN1CC2 (centres undefined) [PRIMA-1MET] + CC(C)C[C@H](NC(=O)[C@H](Cc1ccccc1)NC(=O)c1cnccn1)B(O)O [Bortezomib] (partner 0.002 µM) :: 0.32
COCC1(CO)C(=O)C2CCN1CC2 (centres undefined) [PRIMA-1MET] + Nc1ncn([C@H]2C[C@H](O)[C@@H](CO)O2)c(=O)n1 [Decitabine] (partner 2 µM) :: 0.518

Given item COCC1(CO)C(=O)C2CCN1CC2 (centres undefined) [PRIMA-1MET] + CC1(C)CCC(c2ccc(Cl)cc2)=C(CN2CCN(c3ccc(C(=O)NS(=O)(=O)c4ccc(N[C@H](CCN5CCOCC5)CSc5ccccc5)c(S(=O)(=O)C(F)(F)F)c4)cc3)CC2)C1 [Navitoclax] (partner 0.5 µM) , the value recorded as its relative viability is 0.404

Given item COCC1(CO)C(=O)C2CCN1CC2 (centres undefined) [PRIMA-1MET] + Cc1nc(Nc2ncc(C(=O)Nc3c(C)cccc3Cl)s2)cc(N2CCN(CCO)CC2)n1 [Dasatinib] (partner 0.075 µM) , the value recorded as its relative viability is 0.363

Just for reference, the supplement of paper PMC10307832 is where these values come from.
